Target: T1, recombinant human LAG3 (Sino Biological Inc.) (human, UniProt P18627 23-450)
T1 construct: Bought recombinant protein; also called CD223; biotinylated recombinant human LAG3
T1 sequence (looked up): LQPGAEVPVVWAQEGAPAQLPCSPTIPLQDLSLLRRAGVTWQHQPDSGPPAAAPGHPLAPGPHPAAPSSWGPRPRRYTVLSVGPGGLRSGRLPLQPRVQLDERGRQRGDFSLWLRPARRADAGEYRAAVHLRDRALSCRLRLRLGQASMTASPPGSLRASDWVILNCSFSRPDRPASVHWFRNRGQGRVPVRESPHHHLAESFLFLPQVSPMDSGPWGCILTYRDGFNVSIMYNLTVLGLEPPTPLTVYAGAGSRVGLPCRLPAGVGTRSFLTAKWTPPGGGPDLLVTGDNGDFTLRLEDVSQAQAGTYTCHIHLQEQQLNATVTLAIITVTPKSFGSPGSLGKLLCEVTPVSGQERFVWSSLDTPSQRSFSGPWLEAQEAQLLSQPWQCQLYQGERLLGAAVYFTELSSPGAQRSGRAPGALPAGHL
Test: ELISA, recombinant human LAG3 coated, Fab detected by anti-FLAG-HRP

Binder	binding result
DNV3.7 Fab (Fab, V domains shown, Light-chain-shuffled Fab variant of DNV3) VH: EVQLVQSGAEVKKPGASVKVSCKASGYTFTSYGISWVRQAPGQGLEWMGWISAYNGNTNYAQKLQGRVTMTTDTSTSTAYMELRSLRSDDTAVYYCARDSSSWWVDAFDIWGQGTMVTVSS VL: SYELTQPPSVSEAPRQRVTISCSGSSSNIGSNAVSWYQQVPRKAPKLLVYYDDLLPSGVSDRFSGSKSGTSASLAIRGLQSEDEADYYCAAWDDSLNAFVFGTGTKVTVL	binds
DNV3.12 Fab (Fab, V domains shown, Light-chain-shuffled Fab variant of DNV3) VH: EVQLVQSGAEVKKPGASVKVSCKASGYTFTSYGISWVRQAPGQGLEWMGWISAYNGNTNYAQKLQGRVTMTTDTSTSTAYMELRSLRSDDTAVYYCARDSSSWWVDAFDIWGQGTMVTVSS VL: SYVLTQPPSASGTPGQRVTISCSGSSSNIGSNIVNWYQHLPGTAPKLLIYGNSQRPSGVSDRFSGSKSGTSASLAISGLQSEDEANYYCAVWDDSLDGHLLFGGGTKLTVL	binds
DNV3.4 Fab (Fab, V domains shown, Light-chain-shuffled Fab variant of DNV3) VH: EVQLVQSGAEVKKPGASVKVSCKASGYTFTSYGISWVRQAPGQGLEWMGWISAYNGNTNYAQKLQGRVTMTTDTSTSTAYMELRSLRSDDTAVYYCARDSSSWWVDAFDIWGQGTMVTVSS VL: SYVLTQPPSTSAAPGQTVTILCFGGGSNLQSNTVNWYRHVSGSAPKLLIHSDDERASGVSPRLSGSKSGGSASLILRGLQPEDEGDYYCAAWDDRLDAYVFGTGTKVTVL	binds
